Protein target, amino acids: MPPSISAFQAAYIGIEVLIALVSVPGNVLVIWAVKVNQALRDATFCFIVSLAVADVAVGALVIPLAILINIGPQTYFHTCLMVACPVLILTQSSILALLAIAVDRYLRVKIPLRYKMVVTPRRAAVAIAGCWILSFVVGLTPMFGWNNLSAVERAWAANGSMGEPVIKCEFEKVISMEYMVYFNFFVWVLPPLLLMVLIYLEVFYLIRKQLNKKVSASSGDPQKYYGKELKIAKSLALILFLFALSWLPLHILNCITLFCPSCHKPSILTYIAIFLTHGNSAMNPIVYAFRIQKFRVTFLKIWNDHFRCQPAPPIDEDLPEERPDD
pKi: −log10 of the molar value.
Recorded pKi values for a group of compounds are listed next.
measure-name: pKi

>>> number("Cc1cnc(-c2nc(N(C)C)nc3ccsc23)s1")
6.04
>>> number("Nc1nc(-c2nccs2)c2sccc2n1")
6.17
>>> number("COc1nc(-c2cccs2)c2sccc2n1")
5.80
>>> number("CN(C)c1nc(-c2nccn2C)c2sccc2n1")
5.96
>>> number("OCCNc1nc(-c2cccs2)c2sccc2n1")
6.40
>>> number("c1csc(-c2nc(C3CC3)nc3ccsc23)n1")
6.59
>>> number("CCNc1nc(-c2ccco2)c2sccc2n1")
6.43

Taken from ChEMBL document CHEMBL1145612.
